target: (CUG)10 RNA (SEQ ID NO: 3); assay: SPR binding to immobilized biotinylated RNA; details: SPR, (CUG)10

compound	apparent KD
CCc1nc2cc3ccccc3cc2cc1C(=O)N[C@@H](CCCCN)C(=O)N[C@@H](C/C=C/C[C@H](NC(=O)[C@H](CCCCN)NC(=O)c1cc2cc3ccccc3cc2nc1CC)C(=O)N1CCC[C@H]1C(=O)NCCCN)C(=O)N1CCC[C@H]1C(=O)NCCCN [Compound 9]	reduced affinity
CCc1nc2cc3ccccc3cc2cc1C(=O)N[C@@H](CCCCN)C(=O)N[C@@H](C/C=C\C[C@H](NC(=O)[C@H](CCCCN)NC(=O)c1cc2cc3ccccc3cc2nc1CC)C(=O)N1CCC[C@H]1C(=O)NCCCN)C(=O)N1CCC[C@H]1C(=O)NCCCN [Compound 8]	reduced affinity
